- Tested on: P-388 leukemia
- test.protocol: Antitumor activity against P-388 leukemia in mice
- Format: in vivo
- condition.info: dose 200 mg/Kg i.p. on day 1; III-a as 5% aqueous ethanol suspension, others as 1:9 Tween 80:water suspension; macroscopic autoptic findings
Listed next: entries and their corresponding Toxic Deaths.
metric: Toxic Deaths

INSERT INTO measurements (compound, reported) VALUES
  ('COc1cccc2c1C(=O)c1c(O)c3c(c(O)c1C2=O)C[C@@](O)(C(C)=O)C[C@@H]3O[C@H]1CC(C=O)[C@H](C)O1 (stereo partly shown) [Compound III-a]', '2/5'),
  ('COc1cccc2c1C(=O)c1c(O)c3c(c(O)c1C2=O)C[C@@](O)(C(=O)CO)C[C@@H]3O[C@H]1CC(C=O)[C@H](C)O1 (stereo partly shown) [Compound III (R3 = OH)]', '1/7'),
  ('COc1cccc2c1C(=O)c1c(O)c3c(c(O)c1C2=O)C[C@@](O)(C(C)=O)C[C@@H]3O[C@H]1CC(C=O)[C@H](C)O1 (single isomer, unassigned) [Compound III-b]', '0/9'),
  ('COc1cccc2c1C(=O)c1c(O)c3c(c(O)c1C2=O)C[C@@](O)(C(C)=O)C[C@@H]3O[C@H]1CC(CO)[C@H](C)O1 (stereo partly shown) [Compound IV (R3 = H)]', '0/5');

###

- Test system: P-388 leukemia
- test.protocol: Antitumor activity against P-388 leukemia in mice
- Format: in vivo
- condition.info: dose 100 mg/Kg i.p. on day 1; III-a as 5% aqueous ethanol suspension, others as 1:9 Tween 80:water suspension; macroscopic autoptic findings
- Method: The antitumor activity of the same compounds was tested against P-388 leukemia in mice. ^(a) Mice were treated i.p. on day 1 after tumor cell inoculation. ^(b) Evaluated on the basis of macroscopic autoptic findings. ^(c) Injected as a water solution. ^(d) Injection as a 5% aqueous ethanol suspension. ^(e) Injected as a 1:9 Tween 80 : water suspension.
metric: Toxic Deaths

INSERT INTO results (compound, reported) VALUES
  ('COc1cccc2c1C(=O)c1c(O)c3c(c(O)c1C2=O)C[C@@](O)(C(C)=O)C[C@@H]3O[C@H]1CC(C=O)[C@H](C)O1 (stereo partly shown) [Compound III-a]', '0/5'),
  ('COc1cccc2c1C(=O)c1c(O)c3c(c(O)c1C2=O)C[C@@](O)(C(=O)CO)C[C@@H]3O[C@H]1CC(C=O)[C@H](C)O1 (stereo partly shown) [Compound III (R3 = OH)]', '0/9'),
  ('COc1cccc2c1C(=O)c1c(O)c3c(c(O)c1C2=O)C[C@@](O)(C(C)=O)C[C@@H]3O[C@H]1CC(CO)[C@H](C)O1 (stereo partly shown) [Compound IV (R3 = H)]', '0/6'),
  ('COc1cccc2c1C(=O)c1c(O)c3c(c(O)c1C2=O)C[C@@](O)(C(C)=O)C[C@@H]3O[C@H]1CC(C=O)[C@H](C)O1 (single isomer, unassigned) [Compound III-b]', '0/10');

###

Listed next: entries and their corresponding T/C %.
- Test system: P-388 leukemia
- test.protocol: Antitumor activity against P-388 leukemia in mice
- Format: in vivo
- condition.info: dose 100 mg/Kg i.p. on day 1; III-a as 5% aqueous ethanol suspension, others as 1:9 Tween 80:water suspension
metric: T/C %

INSERT INTO results (compound, metric, reported) VALUES
  ('COc1cccc2c1C(=O)c1c(O)c3c(c(O)c1C2=O)C[C@@](O)(C(C)=O)C[C@@H]3O[C@H]1CC(CO)[C@H](C)O1 (stereo partly shown) [Compound IV (R3 = H)]', 'T/C %', '160%'),
  ('COc1cccc2c1C(=O)c1c(O)c3c(c(O)c1C2=O)C[C@@](O)(C(C)=O)C[C@@H]3O[C@H]1CC(C=O)[C@H](C)O1 (single isomer, unassigned) [Compound III-b]', 'T/C %', '110%'),
  ('COc1cccc2c1C(=O)c1c(O)c3c(c(O)c1C2=O)C[C@@](O)(C(C)=O)C[C@@H]3O[C@H]1CC(C=O)[C@H](C)O1 (stereo partly shown) [Compound III-a]', 'T/C %', '163%'),
  ('COc1cccc2c1C(=O)c1c(O)c3c(c(O)c1C2=O)C[C@@](O)(C(=O)CO)C[C@@H]3O[C@H]1CC(C=O)[C@H](C)O1 (stereo partly shown) [Compound III (R3 = OH)]', 'T/C %', '190%');

###

- Test system: P-388 leukemia
- test.protocol: Antitumor activity against P-388 leukemia in mice
- Assay type: in vivo
- condition.info: dose 50 mg/Kg i.p. on day 1; III-a as 5% aqueous ethanol suspension, others as 1:9 Tween 80:water suspension; macroscopic autoptic findings
metric: Toxic Deaths

INSERT INTO measurements (compound, metric, reported) VALUES
  ('COc1cccc2c1C(=O)c1c(O)c3c(c(O)c1C2=O)C[C@@](O)(C(C)=O)C[C@@H]3O[C@H]1CC(CO)[C@H](C)O1 (stereo partly shown) [Compound IV (R3 = H)]', 'Toxic Deaths', '0/7'),
  ('COc1cccc2c1C(=O)c1c(O)c3c(c(O)c1C2=O)C[C@@](O)(C(C)=O)C[C@@H]3O[C@H]1CC(C=O)[C@H](C)O1 (single isomer, unassigned) [Compound III-b]', 'Toxic Deaths', '0/10'),
  ('COc1cccc2c1C(=O)c1c(O)c3c(c(O)c1C2=O)C[C@@](O)(C(=O)CO)C[C@@H]3O[C@H]1CC(C=O)[C@H](C)O1 (stereo partly shown) [Compound III (R3 = OH)]', 'Toxic Deaths', '0/9'),
  ('COc1cccc2c1C(=O)c1c(O)c3c(c(O)c1C2=O)C[C@@](O)(C(C)=O)C[C@@H]3O[C@H]1CC(C=O)[C@H](C)O1 (stereo partly shown) [Compound III-a]', 'Toxic Deaths', '0/8');
